# System: NCI-H226
# assay: Growth inhibition of human NCI-H226 cells after 48 hrs by sulforhodamine B assay
# Assay type: functional
# details: NCI-H226, 48 h, read-out: pTGI (converted)
# TGI >= 50 µM gives 1, anything below gives 0

q: Record COc1cc(CNc2nc3cc(N)cc(N)c3nc2-c2ccccc2)cc(OC)c1OC ; criterion: TGI no lower than 50 µM. Met?
a: 0

q: Record COc1ccc(Sc2nc3cc(N)cc(N)c3nc2-c2ccccc2)cc1 ; criterion: TGI no lower than 50 µM. Met?
a: 1

q: Record COc1ccc(CNc2nc3cc(N)cc(N)c3nc2-c2ccccc2)cc1 ; criterion: TGI no lower than 50 µM. Met?
a: 1

q: Record Nc1cc(N)c2nc(-c3ccccc3)c(Sc3ccc(Cl)c(Cl)c3)nc2c1 ; criterion: TGI no lower than 50 µM. Met?
a: 0

q: Record COc1cc(OC)cc(Oc2nc3cc(N)cc(N)c3nc2-c2ccccc2)c1 ; criterion: TGI no lower than 50 µM. Met?
a: 0

q: Record Nc1cc(N)c2nc(-c3ccccc3)c(NCc3ccc(F)cc3)nc2c1 ; criterion: TGI no lower than 50 µM. Met?
a: 0

q: Record COc1ccc(CNc2nc3cc(N)cc(N)c3nc2-c2ccccc2)cc1OC ; criterion: TGI no lower than 50 µM. Met?
a: 0

q: Record Nc1cc(N)c2nc(-c3ccccc3)c(Sc3ccc(F)cc3)nc2c1 ; criterion: TGI no lower than 50 µM. Met?
a: 0

q: Record Nc1cc(N)c2nc(-c3ccccc3)c(NCc3ccc(Cl)c(Cl)c3)nc2c1 ; criterion: TGI no lower than 50 µM. Met?
a: 0

Reference for the values: ChEMBL document CHEMBL1137710
